# Species on record: Rattus norvegicus
# assay-procedure: DrugMatrix - Regimen: Daily Repeat
# Format: toxicity, organism-based, Sprague-Dawley
# Set-up: regimen Daily Repeat, gender Male, age 6-8 weeks
# experimental-conditions: in vivo, iv, 0 mg/kg, 120 h, tissue Plasma, dose level Control, time 5 day, vehicle 100 % SALINE
Measured LIPASE accompanies every entry in the list below.

[
  {
    "molecule": "CC[C@]1(O)C[C@H]2CN(CCc3c([nH]c4ccccc34)[C@@](C(=O)OC)(c3cc4c(cc3OC)N(C=O)[C@H]3[C@@](O)(C(=O)OC)[C@H](OC(C)=O)[C@]5(CC)C=CCN6CC[C@]43[C@@H]65)C2)C1 [VINCRISTINE]",
    "LIPASE": "11.33 u/L"
  },
  {
    "molecule": "COc1cc2c3cc1Oc1cc(ccc1O)C[C@@H]1c4c(cc(OC)c(O)c4Oc4ccc(cc4)C[C@@H]3N(C)CC2)CC[N+]1(C)C.[Cl-]",
    "LIPASE": "10.33 u/L"
  },
  {
    "molecule": "Cc1ccc(N(CC2=NCCN2)c2cccc(O)c2)cc1 [PHENTOLAMINE]",
    "LIPASE": "10.83 u/L"
  }
]
